These measurements were taken from patent US20220098269A1.

- Experimental system: T1, HLA-A*24:02 (human)
- T1 construct: Peptide-receptive MHC class I monomer after UV cleavage of a UV-sensitive ligand
- Assay method text: UV-ligand exchange, anti-b2m ELISA; peptide exchange yield grade
Hi there, I'd appreciate the recorded peptide exchange yield for every entry that follows.

Sample records with peptide exchange yield:
RQDESYLNF :: 20 to 50%
TYLPTDASLSF :: ≥ 75%

Kindly consider the entry below.
Given the binder VHDFTLPSW , what is its reported peptide exchange yield?
20 to 50%
